test system: 317291-083-R-J1-PDC complex spheroids, viability; assay: Anticancer human tumor 317291-083-R-J1-PDC patient-derived soft tissue sarcoma cell line growth inhibition [GQUAD]; settings: curve of first compound; second compound 1 µM;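 note: spheroids exposed to compounds for one week before readout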
pIC50: −log10 of the molar value.
result type: pIC50

compound | pIC50
C=CC(=O)N1CCN(c2nc(=O)n(-c3c(C)ccnc3C(C)C)c3nc(-c4c(O)cccc4F)c(F)cc23)C(C)C1 (stereo not given) + Cc1[nH]c2ccc(F)cc2c1-c1nc2c3cccnc3c3ncccc3c2[nH]1 | < 5.00
Cn1ncnc1[C@H]1c2n[nH]c(=O)c3cc(F)cc(c23)N[C@@H]1c1ccc(F)cc1 + Cc1[nH]c2ccc(F)cc2c1-c1nc2c3cccnc3c3ncccc3c2[nH]1 | < 6.50
O=C(c1cc(Cc2n[nH]c(=O)c3ccccc23)ccc1F)N1CCN(C(=O)C2CC2)CC1 + CN(C)c1ccc(Nc2c3ccc(NC(=O)CCN4CCCC4)cc3nc3cc(NC(=O)CCN4CCCC4)ccc23)cc1 | > 7.50
COc1cccc2c1C(=O)c1c(O)c3c(c(O)c1C2=O)CC(O)(C(=O)CO)CC3OC1CC(N)C(O)C(C)O1 (stereo not given) + CN(C)c1ccc(Nc2c3ccc(NC(=O)CCN4CCCC4)cc3nc3cc(NC(=O)CCN4CCCC4)ccc23)cc1 | > 7.50
CC(=O)O[C@H]1C(=O)[C@@]2(C)[C@H]([C@H](OC(=O)c3ccccc3)[C@]3(O)C[C@H](OC(=O)[C@H](O)[C@@H](NC(=O)c4ccccc4)c4ccccc4)C(C)=C1C3(C)C)[C@]1(OC(C)=O)CO[C@@H]1C[C@@H]2O + Cc1cnc(CNC(=O)c2c(=O)c3ccc(N4CCCN(C)CC4)nc3n3c2sc2ccccc23)cn1 | > 7.50
COc1cc(C2c3cc4c(cc3C(OC3OC5COC(C)OC5C(O)C3O)C3COC(=O)C23)OCO4)cc(OC)c1O (stereo not given) + Cc1cnc(CNC(=O)c2c(=O)c3ccc(N4CCCN(C)CC4)nc3n3c2sc2ccccc23)cn1 | > 7.50
C#Cc1c(F)ccc2cc(O)cc(-c3ncc4c(N5CC6CCC(C5)N6)nc(OCC56CCCN5CC(F)C6)nc4c3F)c12 (stereo not given) + CN(C)c1ccc(Nc2c3ccc(NC(=O)CCN4CCCC4)cc3nc3cc(NC(=O)CCN4CCCC4)ccc23)cc1 | > 7.50
CC(C)n1c(=O)n(C)c2cnc3cc(F)c(-c4ccc(OCCCN5CCCCC5)nc4)cc3c21 + Cc1cnc(CNC(=O)c2c(=O)c3ccc(N4CCCN(C)CC4)nc3n3c2sc2ccccc23)cn1 | > 7.50

Required: pIC50, one value per compound below.
1. Nc1ccn(C2OC(CO)C(O)C2(F)F)c(=O)n1 (stereo not given) + Cc1cnc(CNC(=O)c2c(=O)c3ccc(N4CCCN(C)CC4)nc3n3c2sc2ccccc23)cn1
2. CCCS(=O)(=O)Nc1ccc(F)c(C(=O)c2c[nH]c3ncc(-c4ccc(Cl)cc4)cc23)c1F + Cc1cnc(CNC(=O)c2c(=O)c3ccc(N4CCCN(C)CC4)nc3n3c2sc2ccccc23)cn1
3. Cc1[nH]c2ccccc2c1CCNCc1ccc(/C=C/C(=O)NO)cc1 + CN(C)c1ccc(Nc2c3ccc(NC(=O)CCN4CCCC4)cc3nc3cc(NC(=O)CCN4CCCC4)ccc23)cc1
4. COc1ncnc(C2CC2)c1-c1ncc2cnn(Cc3ccc(-c4nc(C(F)(F)F)cn4C(C)C)cc3)c2n1 + Cc1cnc(CNC(=O)c2c(=O)c3ccc(N4CCCN(C)CC4)nc3n3c2sc2ccccc23)cn1
5. COc1ccc([C@@H](O)c2cc(-c3ncnc4cc(N5CCOCC5)ccc34)c(F)cc2Cl)nn1 + Cc1[nH]c2ccc(F)cc2c1-c1nc2c3cccnc3c3ncccc3c2[nH]1
6. Nc1ccn(C2OC(CO)C(O)C2(F)F)c(=O)n1 (stereo not given) + Cc1[nH]c2ccc(F)cc2c1-c1nc2c3cccnc3c3ncccc3c2[nH]1
7. Cc1cccc(N(C)C(=O)C2C(O)CCN2c2nc(C)cc(C(F)(F)F)c2C#N)c1 (stereo not given) + CN(C)c1ccc(Nc2c3ccc(NC(=O)CCN4CCCC4)cc3nc3cc(NC(=O)CCN4CCCC4)ccc23)cc1

a:
1: > 7.50; 2: > 7.50; 3: > 9.00; 4: > 7.50; 5: 5.23; 6: 7.43; 7: 6.26
